System: SK-MEL-28
experimental.details: NCI tumour cell line growth inhibition, 48 h
Activity calls are given as the source filed them. No stated cut-off is given here; in the data, active = GI50 up to about 1.1 µM and inactive = higher.
Outcome codes: true (active), false (inactive)

[[record]]
molecule = "CCOC(=O)N[C@H]1CCc2cc(OC)c(OC)c(OC)c2-c2ccc(SC)c(=O)cc21"
classification = "true"

[[record]]
molecule = "COc1ccc2nc3ccccc3c(NCCCN(C)CCCl)c2c1"
classification = "true"

[[record]]
molecule = "COc1cc(/C=C/C(=O)c2sc(Nc3ccccc3)nc2C)ccc1O"
classification = "false"

[[record]]
molecule = "COC(=O)C1=C(C(=O)OC)C2=S(SC3=C2CCCC3)S1 (stereo unspecified)"
classification = "false"

[[record]]
molecule = "Cc1cn(C2CC(O)C(Cn3nncc3Cn3ncc(=O)[nH]c3=O)O2)c(=O)[nH]c1=O (stereo unspecified)"
classification = "false"

[[record]]
molecule = "COC(=O)NC(Cc1ccccc1)NC(C)=O (stereo unspecified)"
classification = "false"

[[record]]
molecule = "CCC/C=C/C=C/C1CC(O)C(O)C(=O)C1CO (stereo unspecified)"
classification = "false"

[[record]]
molecule = "COc1ccc(C(=O)C(C(=O)C(=O)Nc2nccs2)c2ccc(OC)cc2)cc1 (stereo unspecified)"
classification = "false"

[[record]]
molecule = "CN1C(NN)=NS(=O)(=O)c2ccccc21"
classification = "false"

[[record]]
molecule = "CCC1(CC)SCc2nc3ccccc3n21"
classification = "false"

[[record]]
molecule = "O=c1nc2sc3ccc4ccccc4c3n2nc1-c1ccccc1"
classification = "false"


----------
Tested on: A498
experimental.details: NCI tumour cell line growth inhibition, 48 h
Calls of active or inactive are those of the source. Cut-off read from the data, not from the text of the source: active = GI50 up to about 1.1 µM and inactive = higher.
reported.property: GI50

[[record]]
molecule = "COc1cc2c(cc1O)C(C)Cc1cc3c(cc1N(C)CC2)OCO3 (stereo not drawn)"
result = "13.2 µM (inactive)"

[[record]]
molecule = "CC(C)(C)OC(=O)N1Cc2cc(O)ccc2C[C@H]1C(=O)O"
result = "> 100 µM (inactive)"

[[record]]
molecule = "Clc1ccc2c(c1)-c1c3c(nn1-c1ccccc1)-c1ccccc1SC3O2 (stereo not drawn)"
result = "> 100 µM (inactive)"

[[record]]
molecule = "COC(=O)c1ccc(C)cc1CC1Cc2cc(C)ccc2C1=O (stereo not drawn)"
result = "> 100 µM (inactive)"

[[record]]
molecule = "COc1ccc(/C=C(/C(=O)c2ccc(Cl)cc2)N2C=CC=CC2=C(C#N)C#N)cc1OC"
result = "14.9 µM (inactive)"

[[record]]
molecule = "CC1(C)C2CCC1(C)C(N/C(Sc1ccccc1)=C(/C(Cl)=C(Cl)Cl)[N+](=O)[O-])C2 (stereo not drawn)"
result = "15 µM (inactive)"

[[record]]
molecule = "O=C(NN1C(=O)CS(=O)(=O)C1c1cccc(F)c1)c1ccncc1 (stereo not drawn)"
result = "> 100 µM (inactive)"

[[record]]
molecule = "O=c1c2ccccc2oc2nc3n(c(=O)c12)CCCS3"
result = "> 100 µM (inactive)"

[[record]]
molecule = "CC(Cl)CC(=O)OCC1CCCN2CCCCC12 (stereo not drawn)"
result = "> 100 µM (inactive)"

[[record]]
molecule = "CCOC(=O)Nc1cc(NC(/C=N/NC(C)=O)C(=O)OCC)c(OC)cc1NC(C)=O (stereo not drawn)"
result = "> 100 µM (inactive)"

[[record]]
molecule = "COc1ccc(C2Cc3cc(OC)c(OC)c(OC)c3C2)cc1 (stereo not drawn)"
result = "28.6 µM (inactive)"

[[record]]
molecule = "CC(C)(C)OC(=O)NC(CCCCNC(=O)OCc1ccccc1)C(=O)NCCNc1ccc(NCCNC(=O)C(CCCCNC(=O)OCc2ccccc2)NC(=O)OC(C)(C)C)c2c1C(=O)c1ccccc1C2=O (stereo not drawn)"
result = "> 100 µM (inactive)"

[[record]]
molecule = "C/C=C(\\C)C(O)C(C)C(O)C/C=C(C)/C=C(\\C)C/C(C)=C/C/C=C(\\C)C(O)C(C)c1ccc(CCC)c(=O)o1 (stereo not drawn)"
result = "14.7 µM (inactive)"

